Cited source: patent US11208422B2

IC50 for assorted compounds
Target: recombinant TASK-3 (Homo sapiens (Human))
Sequence (Q9NPC2 whole entry): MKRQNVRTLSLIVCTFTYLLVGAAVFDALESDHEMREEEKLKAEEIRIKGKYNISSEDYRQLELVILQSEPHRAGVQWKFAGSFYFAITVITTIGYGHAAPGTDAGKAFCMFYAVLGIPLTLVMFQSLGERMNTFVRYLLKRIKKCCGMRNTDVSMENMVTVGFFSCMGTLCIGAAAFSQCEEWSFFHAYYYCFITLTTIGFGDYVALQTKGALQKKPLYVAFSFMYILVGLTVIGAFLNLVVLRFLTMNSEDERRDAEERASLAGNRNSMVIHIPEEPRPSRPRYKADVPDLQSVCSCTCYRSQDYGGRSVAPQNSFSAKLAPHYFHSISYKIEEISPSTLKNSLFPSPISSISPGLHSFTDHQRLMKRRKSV
Assay: Inhibition of recombinant TASK-3 in stably transfected CHO cells (KCl-induced depolarization, voltage-sensitive dye, FLIPR)
Assay type: cell-based
Details: depolarization induced by 40 mM potassium chloride, some mean values from multiple determinations
In your response, the unit should come after the numeric value.

Some entries whose results are on file:
COMPOUND: COc1ccc(F)c(C(=O)N2CCC3CCC2CN3Cc2c(-c3ccc(Cl)cc3)nc3ncccn23)n1 (centres unmarked) [Example 33]
MEASURED_ON: recombinant TASK-3 (Homo sapiens (Human))
IC50: 110 nM
//
COMPOUND: COc1ccc(F)c(C(=O)N2CCC3CCC2CN3Cc2c(-c3ccc(Cl)cc3)nc3ncccn23)n1 (single isomer, unassigned) [Example 17]
MEASURED_ON: recombinant TASK-3 (Homo sapiens (Human))
IC50: 15 nM
//
COMPOUND: O=C(c1ccccc1F)N1C2CCC1CN(Cc1c(-c3ccc(Cl)cc3)nc3ncccn13)CC2 (single isomer, unassigned; (-)) [Example 81]
MEASURED_ON: recombinant TASK-3 (Homo sapiens (Human))
IC50: 9.2 nM
//
COMPOUND: COc1ccc(F)c(C(=O)N2C3CCC2CN(Cc2c(-c4ccc(Cl)cc4)nc4ncccn24)CC3)n1 (single isomer, unassigned) [Example 82]
MEASURED_ON: recombinant TASK-3 (Homo sapiens (Human))
IC50: 1.4 nM

Briefly, IC50 measured for COc1ccc(F)c(C(=O)N2C3CCN(Cc4c(-c5ccc(Cl)cc5)nc5ccccn45)CC2COC3)n1 (single isomer, unassigned) [Example 12] : 2.5 nM

For COc1cccc(C(=O)N2C3CCC2CN(Cc2c(-c4ccc(Cl)cc4)nc4ccccn24)CC3)n1 (single isomer, unassigned) [Example 91] the compound record lists IC50 as 5.5 nM

Sample COc1cccc(C(=O)N2CCC3CCC2CN3Cc2c(-c3ccc(Cl)cc3)nc3ncccn23)n1 (centres unmarked) [Example 21] ; IC50 observed: 140 nM

Item: COc1ccc(F)c(C(=O)N2CCC3CCC2CN3Cc2c(-c3ccc(Cl)cn3)nc3ccccn23)n1 (centres unmarked) | IC50: 580 nM

Record summary for CC(C)c1ccc(-c2nc3ncccn3c2CN2C3CCC2CN(C(=O)c2ccccc2F)CC3)cc1 (centres unmarked) [Example 64] : reported IC50 = 1800 nM

The reported value for COc1ccc(F)c(C(=O)N2CCC3CCC2CN3Cc2c(-c3ccc(Cl)cc3)nc3ccccn23)n1 (centres unmarked) [Example 38] in terms of IC50 is 4 nM

The recorded IC50 for COc1cccc(C(=O)N2CCC3CCC2CN3Cc2c(-c3ccc(Cl)cc3)nc3ncccn23)n1 (centres unmarked) [Example 32] is 4.1 nM
